Target: Adrenergic receptor alpha-2 (Rattus norvegicus, UniProt P22086+P19328+P22909)
Assay: Antagonistic activity against alpha-2 adrenergic receptor in rat vas deferens
Assay type: functional, tissue-based
MEASURED PARAMETER: pA2

>  <COMPOUND>
CC(C)CS(=O)(=O)N[C@@H]1CCN2CCc3ccccc3[C@@H]2C1

>  <pA2>
6.34

$$$$
>  <COMPOUND>
CCCCCS(=O)(=O)N(C)[C@@H]1CCN2CCc3ccccc3[C@@H]2C1

>  <pA2>
7.74

$$$$
>  <COMPOUND>
CN([C@@H]1CCN2CCc3ccccc3[C@@H]2C1)S(=O)(=O)c1cccc2ccccc12

>  <pA2>
8.06

$$$$
>  <COMPOUND>
CN(C)S(=O)(=O)N(C)[C@@H]1CCN2CCc3ccccc3[C@@H]2C1

>  <pA2>
7.4

$$$$
>  <COMPOUND>
CN([C@@H]1CCN2CCc3ccccc3[C@@H]2C1)S(=O)(=O)CC(C)(C)C

>  <pA2>
8.11

$$$$
>  <COMPOUND>
CCN([C@@H]1CCN2CCc3ccccc3[C@@H]2C1)S(=O)(=O)CC(C)C

>  <pA2>
7.61

$$$$
>  <COMPOUND>
CN([C@@H]1CCN2CCc3ccccc3[C@@H]2C1)S(C)(=O)=O (stereo in doubt)

>  <pA2>
8.05

$$$$
>  <COMPOUND>
CN([C@@H]1CCN2CCc3ccccc3[C@@H]2C1)S(=O)(=O)c1ccsc1

>  <pA2>
7.94

$$$$
>  <COMPOUND>
CN([C@@H]1CCN2CCc3ccccc3[C@@H]2C1)S(=O)(=O)CC(F)(F)F

>  <pA2>
7.56

$$$$
>  <COMPOUND>
CC(C)CS(=O)(=O)N(C)[C@@H]1CCN2CCc3ccccc3[C@@H]2C1 (stereo in doubt)

>  <pA2>
8.05

$$$$
>  <COMPOUND>
CCCS(=O)(=O)N(C)[C@@H]1CCN2CCc3ccccc3[C@@H]2C1 (stereo in doubt; 10)

>  <pA2>
8.08

$$$$
>  <COMPOUND>
C=CS(=O)(=O)N(C)[C@@H]1CCN2CCc3ccccc3[C@@H]2C1

>  <pA2>
7.93

$$$$
>  <COMPOUND>
COc1ccc(S(=O)(=O)N(C)[C@@H]2CCN3CCc4ccccc4[C@@H]3C2)cc1

>  <pA2>
8.1

$$$$
>  <COMPOUND>
CN([C@@H]1CCN2CCc3ccccc3C2C1)S(C)(=O)=O (stereo partly specified)

>  <pA2>
5.7

$$$$
>  <COMPOUND>
CN([C@@H]1CCN2CCc3ccccc3[C@@H]2C1)S(=O)(=O)CC1CC1

>  <pA2>
7.7

$$$$
>  <COMPOUND>
CN([C@@H]1CCN2CCc3ccccc3[C@@H]2C1)S(=O)(=O)CCl

>  <pA2>
8.26

$$$$
>  <COMPOUND>
CN([C@@H]1CCN2CCc3ccccc3[C@@H]2C1)S(=O)(=O)CCN1CCCCC1

>  <pA2>
7.5

$$$$
>  <COMPOUND>
CCCS(=O)(=O)N(C)[C@@H]1CCN2CCc3ccccc3[C@@H]2C1 (stereo in doubt)

>  <pA2>
8.5

$$$$
>  <COMPOUND>
CNS(=O)(=O)N(C)[C@@H]1CCN2CCc3ccccc3[C@@H]2C1

>  <pA2>
7.44

$$$$
>  <COMPOUND>
Cc1ccccc1S(=O)(=O)N(C)[C@@H]1CCN2CCc3ccccc3[C@@H]2C1

>  <pA2>
7.87

$$$$
>  <COMPOUND>
CN([C@@H]1CCN2CCc3ccccc3[C@@H]2C1)S(=O)(=O)c1ccc(Cl)cc1

>  <pA2>
7.6

$$$$
>  <COMPOUND>
CS(=O)(=O)N[C@@H]1CCN2CCc3ccccc3[C@@H]2C1

>  <pA2>
6.27

$$$$
>  <COMPOUND>
COP(=O)(OC)N(C)[C@@H]1CCN2CCc3ccccc3[C@@H]2C1

>  <pA2>
6.63

$$$$
>  <COMPOUND>
CCCS(=O)(=O)N(C)[C@@H]1CCN2CCc3ccccc3C2C1 (stereo partly specified)

>  <pA2>
5.78

$$$$
>  <COMPOUND>
CN([C@@H]1CCN2CCc3ccccc3[C@@H]2C1)S(=O)(=O)c1cccnc1

>  <pA2>
8.22

$$$$
>  <COMPOUND>
CCS(=O)(=O)N(C)[C@@H]1CCN2CCc3ccccc3[C@@H]2C1

>  <pA2>
7.7

$$$$
>  <COMPOUND>
CN([C@@H]1CCN2CCc3ccccc3[C@@H]2C1)S(C)(=O)=O (stereo in doubt; 6)

>  <pA2>
7.81

$$$$
>  <COMPOUND>
CN([C@@H]1CCN2CCc3ccccc3[C@@H]2C1)S(=O)(=O)c1ccccc1

>  <pA2>
8.44

$$$$
>  <COMPOUND>
CN([C@@H]1CCN2CCc3ccccc3[C@@H]2C1)S(=O)(=O)c1cccc2cccnc12

>  <pA2>
8.46

$$$$
>  <COMPOUND>
CC(C)CS(=O)(=O)N(C)[C@@H]1CCN2CCc3ccccc3[C@@H]2C1 (stereo in doubt; 16)

>  <pA2>
8.16

$$$$
>  <COMPOUND>
CN([C@@H]1CCN2CCc3ccccc3[C@@H]2C1)S(=O)(=O)N1CCCC1

>  <pA2>
8.1

$$$$
>  <COMPOUND>
CN([C@@H]1CCN2CCc3ccccc3[C@@H]2C1)S(N)(=O)=O

>  <pA2>
7.1

$$$$
>  <COMPOUND>
CCN([C@@H]1CCN2CCc3ccccc3[C@@H]2C1)S(C)(=O)=O

>  <pA2>
7.39

$$$$
